molecular target: α4β7 integrin (Homo sapiens (Human), UniProt P13612+P26010); experiment: Integrin Adhesion Assay: Protocol 1 (MAdCAM-coated plate, RPMI-8866 cells, CellTiter GLO readout); type: cell-based
Sequence (P13612 34-1032): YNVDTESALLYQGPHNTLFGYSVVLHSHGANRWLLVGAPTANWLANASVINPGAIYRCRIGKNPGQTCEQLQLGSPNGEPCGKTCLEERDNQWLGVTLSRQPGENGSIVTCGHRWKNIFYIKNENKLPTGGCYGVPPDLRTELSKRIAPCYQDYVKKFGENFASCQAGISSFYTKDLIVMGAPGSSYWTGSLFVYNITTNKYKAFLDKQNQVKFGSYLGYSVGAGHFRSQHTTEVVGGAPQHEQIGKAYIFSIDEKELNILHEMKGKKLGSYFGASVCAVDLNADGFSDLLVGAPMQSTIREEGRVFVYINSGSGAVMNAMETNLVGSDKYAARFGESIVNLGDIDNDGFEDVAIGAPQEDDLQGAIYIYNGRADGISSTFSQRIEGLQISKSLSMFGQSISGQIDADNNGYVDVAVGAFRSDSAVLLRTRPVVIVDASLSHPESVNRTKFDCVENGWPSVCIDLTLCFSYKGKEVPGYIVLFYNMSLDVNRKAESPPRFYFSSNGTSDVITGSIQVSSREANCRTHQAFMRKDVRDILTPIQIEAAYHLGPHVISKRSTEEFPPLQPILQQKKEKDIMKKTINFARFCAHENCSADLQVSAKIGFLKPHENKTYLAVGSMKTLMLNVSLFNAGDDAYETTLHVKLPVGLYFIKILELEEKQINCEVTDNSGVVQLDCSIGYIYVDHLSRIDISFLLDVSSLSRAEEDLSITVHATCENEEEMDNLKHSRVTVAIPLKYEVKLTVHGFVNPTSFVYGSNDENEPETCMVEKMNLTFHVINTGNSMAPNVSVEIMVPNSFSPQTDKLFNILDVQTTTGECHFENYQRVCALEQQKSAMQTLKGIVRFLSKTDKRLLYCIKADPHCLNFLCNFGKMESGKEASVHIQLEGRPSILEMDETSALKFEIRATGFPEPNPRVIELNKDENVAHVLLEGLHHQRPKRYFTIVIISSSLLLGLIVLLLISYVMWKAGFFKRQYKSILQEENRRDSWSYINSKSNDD
Sequence (P26010 20-798): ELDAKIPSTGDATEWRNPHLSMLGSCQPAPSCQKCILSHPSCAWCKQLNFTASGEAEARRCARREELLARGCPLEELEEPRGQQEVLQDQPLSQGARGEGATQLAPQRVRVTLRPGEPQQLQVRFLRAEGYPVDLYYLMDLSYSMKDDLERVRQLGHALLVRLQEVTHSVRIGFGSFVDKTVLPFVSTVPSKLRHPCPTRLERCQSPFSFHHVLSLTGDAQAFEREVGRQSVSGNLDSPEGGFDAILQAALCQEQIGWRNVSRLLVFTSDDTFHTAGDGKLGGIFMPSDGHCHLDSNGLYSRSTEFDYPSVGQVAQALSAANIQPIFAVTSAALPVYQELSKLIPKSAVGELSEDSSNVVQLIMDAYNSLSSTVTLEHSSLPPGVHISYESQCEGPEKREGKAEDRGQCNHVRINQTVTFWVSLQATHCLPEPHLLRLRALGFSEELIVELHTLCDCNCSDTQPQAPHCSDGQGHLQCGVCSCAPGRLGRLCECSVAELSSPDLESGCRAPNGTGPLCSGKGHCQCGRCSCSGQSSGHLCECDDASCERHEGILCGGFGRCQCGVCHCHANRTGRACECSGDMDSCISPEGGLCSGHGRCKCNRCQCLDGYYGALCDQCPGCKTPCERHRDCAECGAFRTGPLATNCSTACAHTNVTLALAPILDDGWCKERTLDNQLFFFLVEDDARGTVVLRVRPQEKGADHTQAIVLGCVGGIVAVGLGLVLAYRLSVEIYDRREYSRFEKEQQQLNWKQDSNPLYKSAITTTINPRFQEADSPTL
pIC50: −log10 of the molar value.
Listing of recorded pIC50 by entry.

pIC50 measured on "CN1CCN(Cc2cc(N3CCOC[C@@H]3C(F)(F)F)cc(F)c2C(=O)N[C@@H](Cc2cccc3c(-c4c(C(F)(F)F)c5ccccc5n(C)c4=O)cccc23)C(=O)O)CC1" = > 8.00

Here is the next item to consider.
// recorded pIC50 for Cn1c(=O)c(-c2cccc3c(C[C@H](NC(=O)[C@]4(C)CC[C@@H](N5CCS(=O)(=O)CC5)CC4)C(=O)O)cccc23)c(C(F)(F)F)c2ccccc21 [Compound 403] : 7.00 to 8.00

* * *

target: α4β7 integrin (Homo sapiens (Human), UniProt P13612+P26010); assay: Integrin Adhesion Assay: Protocol 4 (MAdCAM-coated plate, RPMI-8866 cells with stable LOF mutation of the ITGB1 gene); assay type: cell-based; settings: Protocol 4; RPMI-8866 cells with LOF mutation of ITGB1, MAdCAM; read-out: Mean IC50 α4β7 KO
pIC50: −log10 of the molar value.
Reported endpoint: pIC50

Some compounds with known pIC50 results, for comparison:
Quick note, pIC50 for "COc1ccc(CN2CCC(C)(C)CC2)cc1-c1cccc2c(C[C@H](NC(=O)C3(C(F)(F)F)CCN(CC(F)F)CC3)C(=O)O)cccc12" landed at > 8.00

So for "COc1ccc(CN2CCCCC2)nc1-c1cccc2c(C[C@H](NC(=O)c3c(C)cccc3F)C(=O)O)cccc12" , the logged pIC50 turned out to be > 8.00

Form: compound = "O=C(O)[C@H](Cc1cccc2c(-c3ncc(CN4C5CCCC4CC5)c4ccccc34)cccc12)NC(=O)C1(C(F)(F)F)CCN(CC(F)(F)F)CC1" ; pIC50 = > 8.00

---
// pIC50 value for "O=C(O)[C@H](Cc1cccc2c(-c3cccc4cc(CN5CCCCC5)ncc34)cccc12)NC(=O)C1(C(F)(F)F)CCN(CC(F)(F)F)CC1" : 6.00 to 7.00

For this compound ( "O=C(O)[C@H](Cc1cccc2c(-c3ncc(CN4CCOCC4)c4ccccc34)cccc12)NC(=O)C1(C(F)(F)F)CCN(CC(F)F)CC1" ), measured pIC50 is > 8.00

// sample "O=C(O)[C@H](Cc1cccc2c(-c3ncc(CN4CCCC4)c4ccccc34)cccc12)NC(=O)C1(C(F)(F)F)CCN(CC(F)(F)F)CC1" , its pIC50 was > 8.00

* * *

Overview of reported IC50 across a group of compounds:
target: α4β7 integrin (Homo sapiens (Human), UniProt P13612+P26010); assay: Integrin Adhesion Assay: Protocol 1 (MAdCAM-coated plate, RPMI-8866 cells, CellTiter GLO readout); assay type: cell-based

// worked examples, IC50 included
// compound "CN1CC(C)(Cc2cc(F)c(C(=O)N[C@@H](Cc3cccc4c(-c5c(C(F)(F)F)c6ccccc6n(C)c5=O)cccc34)C(=O)O)c(F)c2)C1" , assay α4β7 integrin (Homo sapiens (Human), UniProt P13612+P26010), IC50 value: > 1000 nM

The reported IC50 value, α4β7 integrin (Homo sapiens (Human), UniProt P13612+P26010), for "Cn1c(=O)c(-c2cccc3c(C[C@H](NC(=O)c4c(F)cc(N5CCC[C@@H]5C(F)(F)F)cc4F)C(=O)O)cccc23)c(C(F)(F)F)c2ccccc21" reads 100 to 1000 nM

***
Observed IC50 on α4β7 integrin (Homo sapiens (Human), UniProt P13612+P26010), entry "COc1ccc(CN(C)C)c(OC)c1-c1cccc2c(C[C@H](NC(=O)c3c(F)cccc3CN3CCC(F)(F)CC3)C(=O)O)cccc12" , equals < 10 nM

Note to self: IC50 of "Cn1c(=O)c(-c2cccc3c(C[C@H](NC(=O)C45CC(N6CCOCC6)(C4)C5)C(=O)O)cccc23)c(C(F)(F)F)c2ccccc21" with α4β7 integrin (Homo sapiens (Human), UniProt P13612+P26010) was 100 to 1000 nM

# lookup: "COc1ccn2nc(C(=O)N[C@@H](Cc3cccc4c(-c5c(C(F)(F)F)c6ccccc6n(C)c5=O)cccc34)C(=O)O)cc2c1" on α4β7 integrin (Homo sapiens (Human), UniProt P13612+P26010), IC50 = > 1000 nM

"Cc1cc(N2CCOC[C@@H]2C(F)(F)F)cc(F)c1C(=O)N[C@@H](Cc1cccc2c(-c3c(C(F)(F)F)c4ccccc4n(C)c3=O)cccc12)C(=O)O" tested on α4β7 integrin (Homo sapiens (Human), UniProt P13612+P26010) gave IC50: 10 to 100 nM

Tested on α4β7 integrin (Homo sapiens (Human), UniProt P13612+P26010), the item CN(C)c1ccc2c(c1)c(C(F)(F)F)c(-c1cccc3c(C[C@H](NC(=O)[C@]4(C)CC[C@H](N5CCOC[C@@H]5C(F)(F)F)CC4)C(=O)O)cccc13)c(=O)n2C (single isomer, unassigned) showed IC50 equal to 100 to 1000 nM
